biological target: human ether-à-go-go-related gene (hERG) potassium channel (human, UniProt Q12809); assay: primary screen, population patch clamp on CHO cells stably expressing hERG; higher = less effect of the substance
Sequence (Q12809 whole entry, looked up): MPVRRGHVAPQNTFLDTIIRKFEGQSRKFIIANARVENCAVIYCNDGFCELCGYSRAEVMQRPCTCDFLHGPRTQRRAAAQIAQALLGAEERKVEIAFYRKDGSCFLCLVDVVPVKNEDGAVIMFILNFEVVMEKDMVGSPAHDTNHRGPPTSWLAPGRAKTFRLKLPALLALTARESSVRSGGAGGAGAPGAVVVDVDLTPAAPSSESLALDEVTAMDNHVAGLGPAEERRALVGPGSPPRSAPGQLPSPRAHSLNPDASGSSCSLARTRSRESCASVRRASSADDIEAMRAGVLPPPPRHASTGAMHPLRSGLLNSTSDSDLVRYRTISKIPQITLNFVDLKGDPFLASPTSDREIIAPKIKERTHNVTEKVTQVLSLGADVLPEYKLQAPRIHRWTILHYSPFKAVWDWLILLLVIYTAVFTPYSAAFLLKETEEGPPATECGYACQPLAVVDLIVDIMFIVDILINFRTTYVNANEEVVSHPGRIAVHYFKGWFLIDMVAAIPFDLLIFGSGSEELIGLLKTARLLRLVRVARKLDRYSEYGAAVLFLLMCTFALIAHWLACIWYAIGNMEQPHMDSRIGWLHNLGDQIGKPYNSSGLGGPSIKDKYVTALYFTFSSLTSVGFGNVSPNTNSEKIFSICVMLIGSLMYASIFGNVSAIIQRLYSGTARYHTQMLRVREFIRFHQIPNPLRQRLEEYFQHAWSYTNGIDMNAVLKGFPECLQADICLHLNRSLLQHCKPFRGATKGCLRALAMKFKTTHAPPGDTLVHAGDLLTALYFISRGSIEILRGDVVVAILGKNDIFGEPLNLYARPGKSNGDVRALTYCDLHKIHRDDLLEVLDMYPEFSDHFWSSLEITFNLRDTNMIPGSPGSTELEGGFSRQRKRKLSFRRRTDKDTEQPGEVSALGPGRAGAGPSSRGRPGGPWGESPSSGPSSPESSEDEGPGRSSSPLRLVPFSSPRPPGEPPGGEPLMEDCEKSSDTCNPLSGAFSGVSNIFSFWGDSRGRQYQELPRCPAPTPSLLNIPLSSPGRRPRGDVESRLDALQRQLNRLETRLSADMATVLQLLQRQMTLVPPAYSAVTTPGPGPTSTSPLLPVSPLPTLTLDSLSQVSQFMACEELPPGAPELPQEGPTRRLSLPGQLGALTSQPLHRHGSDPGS
The campaign covered roughly 310,000 compounds. About 2,200 (0.71%) showed an effect of 50% or more. The effect is printed as a negative number. The sample as a whole holds a higher share of strong results than the screen did.
recorded_metric: hERG current change (%, negative = inhibition) at 1uM

Known results for molecules:
Find the measured hERG current change (%, negative = inhibition) at 1uM: item CC1(C)Cc2c(cnn2-c2cccc(F)c2)C(NC(=O)c2ccc(=O)[nH]n2)C1 (centres unmarked) , target or system human ether-à-go-go-related gene (hERG) potassium channel (human, UniProt Q12809).
-61.7%

Query for human ether-à-go-go-related gene (hERG) potassium channel (human, UniProt Q12809): what hERG current change (%, negative = inhibition) at 1uM does the record show for COc1ccc(-c2csc(N(CCCN(C)C)C(=O)c3ccc(C)cc3)n2)cc1.Cl ?
-17.2%

Request body: readout hERG current change (%, negative = inhibition) at 1uM, system human ether-à-go-go-related gene (hERG) potassium channel (human, UniProt Q12809), query COc1ccc(/C=N\NC(=O)c2cc(O)c(O)c(O)c2)cc1CN1CCN(c2ccc(F)cc2)CC1 . Return the value.
10.4%

// lookup hERG current change (%, negative = inhibition) at 1uM | system=human ether-à-go-go-related gene (hERG) potassium channel (human, UniProt Q12809) | key= Cc1ccc(C(=O)NCCNS(=O)(=O)c2ccccc2)cc1
-1.17%

For human ether-à-go-go-related gene (hERG) potassium channel (human, UniProt Q12809), provide hERG current change (%, negative = inhibition) at 1uM of O=C(c1cccs1)N(CC1CCCO1)c1nc(-c2ccccc2)cs1 (centres unmarked) please.
11.8%

Requested read-out hERG current change (%, negative = inhibition) at 1uM, target or system human ether-à-go-go-related gene (hERG) potassium channel (human, UniProt Q12809), entry Oc1ccc(-c2[nH]ncc2-c2ccc(Br)cc2)c(O)c1
6.73%

Checklist item: hERG current change (%, negative = inhibition) at 1uM tested on human ether-à-go-go-related gene (hERG) potassium channel (human, UniProt Q12809), entry O=C(CSc1nc(Cc2ccccc2)nc2ccccc12)Nc1nc2c(s1)CCCC2 , value?
15.9%

Please tell me: hERG current change (%, negative = inhibition) at 1uM of CC1(C)Cc2c(cnn2-c2cccc(F)c2)C(NC(=O)c2csnn2)C1 (centres unmarked) , system human ether-à-go-go-related gene (hERG) potassium channel (human, UniProt Q12809)?
-85%

Missing value: hERG current change (%, negative = inhibition) at 1uM, human ether-à-go-go-related gene (hERG) potassium channel (human, UniProt Q12809), entry CC(C)CN(C(=O)COC(=O)C12CC3CC(CC(O)(C3)C1)C2)C1CCS(=O)(=O)C1 (centres unmarked) . Fill in?
18.7%

Record COCCn1c(C)cc(C(=O)CSc2nc(C)c(C)c(C)n2)c1C : what is its hERG current change (%, negative = inhibition) at 1uM with human ether-à-go-go-related gene (hERG) potassium channel (human, UniProt Q12809)?
9.29%

Required: hERG current change (%, negative = inhibition) at 1uM, one value per molecule below.
1. Cc1cnc(C(=O)NC2CC(C)(C)Cc3c2cnn3-c2cccc(F)c2)cn1 (centres unmarked)
2. CNC(=O)c1cc2cc(OC)ccc2oc1=O
3. COc1ccc(/C=N/NC(=O)c2ccc(Br)cc2)cc1CN1CCOCC1
4. COc1ccc(-c2csc(N(CCCN(C)C)C(=O)c3cccs3)n2)cc1.Cl
5. COc1ccc(-c2csc(N(CCCN(C)C)C(=O)c3ccccc3Cl)n2)cc1.Cl
6. CCOC(=O)C1=C(OCc2ccc(Cl)cc2)C2C=C(C)C=CC2N=C1 (centres unmarked)
7. Cc1c(C(=O)Nc2nccs2)oc2ccc(F)cc12

["3.82%", "-4.3%", "-23.8%", "-51.6%", "-12.5%", "-18.1%", "14.5%"]

// each listed molecule needs a value for hERG current change (%, negative = inhibition) at 1uM
1. Cc1ccc(-n2ncc3c2CCCC3NC(=O)c2csnn2)cc1C (centres unmarked)
2. COc1cc(C(=O)N/N=C/c2ccc(OC)c(CN3CCN(c4ccc(F)cc4)CC3)c2)ccc1O
3. CN(C)C=Nc1nonc1-c1ccc(Cl)cc1

["2.61%", "-52.4%", "11.2%"]

----------
biological target: human ether-à-go-go-related gene (hERG) potassium channel (human, UniProt Q12809); test: primary screen, population patch clamp on CHO cells stably expressing hERG; higher = less effect of the substance
About 2,200 (0.71%) of roughly 310,000 compounds showed an effect of 50% or more. Effects have a minus sign here. This excerpt belongs to a sample that is enriched for strong results.
recorded_metric: hERG current change (%, negative = inhibition) at 1uM (%)
Give bare numbers, in %.

Check out these entries, answers already filled in.
Tell me reported hERG current change (%, negative = inhibition) at 1uM for COC/C=C/C1=CC2=CC(=O)C(C)(OC(=O)c3cnc4ccccc4n3)C(=O)C2=CN1C1CCCCC1 (stereo not shown) , tested with human ether-à-go-go-related gene (hERG) potassium channel (human, UniProt Q12809).
9.88

human ether-à-go-go-related gene (hERG) potassium channel (human, UniProt Q12809) / hERG current change (%, negative = inhibition) at 1uM / O=C(Nc1nc(-c2ccccc2)cs1)c1ccc(N2CCOCC2)c([N+](=O)[O-])c1 : value?
31.6

Notebook entry, human ether-à-go-go-related gene (hERG) potassium channel (human, UniProt Q12809) assay: hERG current change (%, negative = inhibition) at 1uM of COc1cc(Cl)nn(-c2ccccc2)c1=O = ?
13.3

Hello, I am looking for reported hERG current change (%, negative = inhibition) at 1uM with human ether-à-go-go-related gene (hERG) potassium channel (human, UniProt Q12809) for COc1ccc(NC(=O)c2ccc(NC(=O)c3cccs3)cc2)cc1 . Could you help?
0.302

Request: hERG current change (%, negative = inhibition) at 1uM, test system human ether-à-go-go-related gene (hERG) potassium channel (human, UniProt Q12809), entry O=C(O)C1Nc2ccc(C(F)(F)F)cc2C2OCCC12 (stereo not shown)
10.7

Please report hERG current change (%, negative = inhibition) at 1uM for every entry that follows.
1. Cc1ccc(Sc2ncccc2C(=O)O)cc1C
2. O=[N+]([O-])/C=C/c1c(OCc2ccccc2)ccc2ccccc12
3. CN(C)c1ccc(C(CNC(=O)c2ccco2)N2CCCC2)cc1 (stereo not shown)
4. O=C(Nc1ccc(N2CCN(C(=O)c3ccco3)CC2)cc1)c1cc(Br)ccc1Cl
5. CC(C)OC(=O)c1ccc(NC(=O)c2ccco2)cc1

15.6
-3.83
13.2
8.3
6.19

----------
target: human ether-à-go-go-related gene (hERG) potassium channel (human); assay: primary screen, population patch clamp on CHO cells stably expressing hERG; higher = less effect of the substance
Screen size: about 310,000 compounds; about 2,200 (0.71%) showed an effect of 50% or more. The effect is printed as a negative number. This is one part of a sample in which strong results are shown more often than they occur.
Give yes (1) when the value for hERG current change (%, negative = inhibition) at 1uM is at least -10%. Give no (0) when it is less.

Examples from the recorded data:
Say whether COc1ccc(C)cc1S(=O)(=O)N(CC(=O)N1CCCC1)c1ccccc1 shows hERG current change (%, negative = inhibition) at 1uM of -10% or more.
yes (1)

State whether the measured hERG current change (%, negative = inhibition) at 1uM reaches -10%, counting equality as reaching it, for CCOC(=O)C1(CC2CCCCO2)CCN(Cc2c(C)cc(C)cc2-n2cccn2)CC1 (stereo not drawn)
no (0)

Entry COc1ccc(C)cc1S(=O)(=O)N(CC(=O)N1CCCC1)c1ccc(C)cc1 : is its hERG current change (%, negative = inhibition) at 1uM no less than -10%?
no (0)

Could you tell me if the measured hERG current change (%, negative = inhibition) at 1uM of COc1cccc(CN2CCCC(CNC(=O)c3ccc(F)cc3)C2)c1OC (stereo not drawn) reaches -10% or more?
no (0)

Next:
Quick check: does O=C(NCC1CCCN(Cc2cccc(C(F)(F)F)c2)C1)c1ccc(F)cc1 (stereo not drawn) have hERG current change (%, negative = inhibition) at 1uM greater than or equal to -10%?
yes (1)

State whether the measured hERG current change (%, negative = inhibition) at 1uM reaches -10%, counting equality as reaching it, for CCOC(=O)C1(CC2CCCCO2)CCN(Cc2cc(F)ccc2-n2cccn2)CC1 (stereo not drawn)
no (0)

Tell me whether hERG current change (%, negative = inhibition) at 1uM is at least -10% here: COc1ccc(C)cc1S(=O)(=O)N(CC(=O)N1CCOCC1)c1cc(C)cc(C)c1
no (0)

For this molecule, is measured hERG current change (%, negative = inhibition) at 1uM -10% or higher? Cc1cc(C)c(CN2CCCC(CNC(=O)c3ccc(F)cc3)C2)c(-n2cccn2)c1 (stereo not drawn)
no (0)

Kindly determine if hERG current change (%, negative = inhibition) at 1uM recorded for Cc1ccc(-n2cccn2)c(CN2CCCC(CNC(=O)c3ccc(F)cc3)C2)c1 (stereo not drawn) is above or exactly -10%.
no (0)

Where do the numbers come from? From paper PMC4336329.
